Target: NDM-1 (Klebsiella pneumoniae, UniProt C7C422)
Sequence (C7C422 29-270, looked up, species assumed): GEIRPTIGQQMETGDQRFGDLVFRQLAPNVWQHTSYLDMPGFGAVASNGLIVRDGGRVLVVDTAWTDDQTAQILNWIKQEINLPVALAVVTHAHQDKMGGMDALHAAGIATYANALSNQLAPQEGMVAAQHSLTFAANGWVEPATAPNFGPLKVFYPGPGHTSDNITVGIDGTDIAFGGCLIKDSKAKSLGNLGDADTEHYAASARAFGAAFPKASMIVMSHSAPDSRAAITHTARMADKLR
Test: MBL inhibition, FC-5 fluorescence assay, NDM-1
Format: biochemical
Conditions: FC-5 cephalosporin substrate, fluorescence; ranges of obtained pIC50; read-out: pIC50 NDM-1 (converted)
REPORTED PROPERTY: IC50

Reference set (3 entries):
[
  {
    "MOLECULE": "CC(c1cccc2c(-c3ccc(CS(C)(=O)=O)c(F)c3)c(C(=O)O)[nH]c12)n1cc(CO)oc1=O (stereo not shown) [IC-78]",
    "REPORTED PROPERTY": "IC50",
    "READOUT VALUE": "1 to 10 nM"
  },
  {
    "MOLECULE": "CC(OC(=O)N1CCC(CN)CC1)c1cccc2c(-c3ccc(CS(C)(=O)=O)c(F)c3)c(C(=O)O)[nH]c12 (stereo not shown) [IC-95]",
    "REPORTED PROPERTY": "IC50",
    "READOUT VALUE": "0.1 to 1 nM"
  },
  {
    "MOLECULE": "CC(NS(C)(=O)=O)c1cccc2c(-c3cc(Cl)cc(Cl)c3)c(C(=O)O)[nH]c12 (stereo not shown) [IC-2]",
    "REPORTED PROPERTY": "IC50",
    "READOUT VALUE": "> 10 nM"
  }
]

Name the recorded IC50 of the molecule listed here: CC(c1cccc2c(-c3ccc(CS(C)(=O)=O)c(F)c3)c(C(=O)O)[nH]c12)n1cc(CNS(N)(=O)=O)nn1 (stereo not shown) [IC-8]
> 10 nM

Name the recorded IC50 of the molecule listed here: C[C@@H](c1cccc2c(-c3cccnc3)c(C(=O)O)[nH]c12)N1C[C@]2(C[C@@H](CN)C2)OC1=O [IC-39]
0.1 to 1 nM

Name the recorded IC50 of the molecule listed here: C[C@@H](c1cccc2c(-c3cn[nH]c(=O)c3)c(C(=O)O)[nH]c12)N1C[C@]2(C[C@@H](CN)C2)OC1=O [IC-33]
1 to 10 nM

Name the recorded IC50 of the molecule listed here: C[C@@H](c1cccc2c(-c3cc(O)nc(O)c3)c(C(=O)O)[nH]c12)N1C[C@]2(C[C@@H](CN)C2)OC1=O [IC-31]
1 to 10 nM
